# system_under_test: T1, 4H3277-bH
# T1 chain: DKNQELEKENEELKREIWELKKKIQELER
# protocol_description: two-hybrid library CCNG1;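 also: natural log of median RNA to DNA barcode read ratio; higher means stronger binding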
readout_kind: interaction score

* DEIQELEKEIEELKRKNWELKKEIQELER [4H121-bH] | -0.678
* DENQELKKKIEELKRKIWELKKENQELER [4H1899-bH] | -0.392
* DKIQELKKENEELERENWELKKKIQELER [4H2717-bH] | -0.479
* DKIQELKKKNEELKRKNWELEKEIQELER [4H3057-bH] | -1.01
